Target Under Test: T1, IFF05588
T1 chain: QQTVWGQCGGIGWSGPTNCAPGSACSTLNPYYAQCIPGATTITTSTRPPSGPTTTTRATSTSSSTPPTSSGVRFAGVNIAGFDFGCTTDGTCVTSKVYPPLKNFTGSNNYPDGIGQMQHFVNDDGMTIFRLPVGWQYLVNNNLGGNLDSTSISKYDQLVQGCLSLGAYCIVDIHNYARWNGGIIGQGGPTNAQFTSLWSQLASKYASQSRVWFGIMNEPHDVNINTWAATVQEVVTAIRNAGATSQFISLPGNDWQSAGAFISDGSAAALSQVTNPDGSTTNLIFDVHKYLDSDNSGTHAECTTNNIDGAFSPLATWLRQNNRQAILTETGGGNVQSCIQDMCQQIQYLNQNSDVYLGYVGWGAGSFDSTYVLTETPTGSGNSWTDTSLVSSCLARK
# Relative late peak area (reverse phase chromatography, 24 h) values compiled below
Number only, no unit.

Entry under review: IFF21347 (protein) KLDKPVIQPNFPGGGLASLGQGLLDNLKPTQSTSDVWGAGWIPADCKSLVQGAGLSPNDITPFNIHYTDCSQTWTFCRHKDSPLSQTDIIDLFGRVPVRMRDYIRHYVFIPGNKSAGSSGDNTLMVGDVDITVFLHEIGHSLDSHAFDPSYGVPFSTGNVWISNYNQDSAVTDDYAQSSQQENFAQETVVSVYDKNVPGGIGNIQPNWQAIFHQYATLEGYIGDTIIPGGTCVNRLTDSQPVTMSNSAKFRRNLGPKPTVSLSPDVKEIKAIPMADSIKMTSFDEHGKPNGTYVIQL . Reported Relative late peak area (reverse phase chromatography, 24 h)?
0.59

Next protein, Relative late peak area (reverse phase chromatography, 24 h) to be filled in.
Return reported Relative late peak area (reverse phase chromatography, 24 h); argument: IFF21380 (protein) QQLDKPALTNDLDYLLEGNVNNLPSNGGPYWGKWEAGLMPADCKSIAESQDLDPTDFEVWDIFFDDCQDGWSFCRHVDSADSFETLVDTFGRIPVRMRSWIRHILTIPGDNWAFNSNGNIAFSGTTSANLDVALHETGHSLDLLGAYGSEALSSTQEWLDAYDADSNVPDNYARSNQVENVAQNTVVGIYDKVVPGGFPGVQPNYQNIENQYTLLQDKAGDQIIPGGTCDRHLENSETVSASGSSKKARDSVNKKSRAVAHDPAFKGTYTNIVKDFVPFNTQDYHH
0.61
